These entries and their values trace back to patent US8148391B2.

study_system: c-Met (cytoplasmic domain) (Homo sapiens, UniProt P08581)
Construct: 10 ng/mL c-Met (cytoplasmic domain, Invitrogen Corporation #PV3143); purchased Invitrogen Corporation PV3143
Sequence (P08581 956-1390 limits assumed): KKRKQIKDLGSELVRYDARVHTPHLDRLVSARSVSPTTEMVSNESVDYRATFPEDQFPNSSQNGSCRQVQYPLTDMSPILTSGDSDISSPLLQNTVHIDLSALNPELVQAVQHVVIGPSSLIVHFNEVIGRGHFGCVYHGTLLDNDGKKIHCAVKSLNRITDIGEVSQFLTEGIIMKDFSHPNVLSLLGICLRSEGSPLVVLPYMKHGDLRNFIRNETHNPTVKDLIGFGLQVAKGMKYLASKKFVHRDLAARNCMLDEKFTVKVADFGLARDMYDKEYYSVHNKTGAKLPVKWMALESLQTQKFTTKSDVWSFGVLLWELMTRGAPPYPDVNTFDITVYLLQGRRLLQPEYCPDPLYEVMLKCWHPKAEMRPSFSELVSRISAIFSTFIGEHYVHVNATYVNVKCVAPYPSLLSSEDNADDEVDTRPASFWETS
assay_info: c-Met Kinase Assay (same methods as for ALK, with modifications)
Format: biochemical
condition_description: c-Met kinase inhibition, 1 μM ATP (Km level); read-out: cMet Activity
pIC50: −log10 of the molar value. Counter-ions that a name gives are not always drawn.
# pIC50 listing for each entry below

molecule	pIC50
CCN1CCN(CC)c2cc(Nc3ncc(Cl)c(Nc4ccccc4NS(C)(=O)=O)n3)c(Cl)cc2C1 [Example 431]	5.00 to 6.00
COc1cc2c(cc1Nc1ncc(Cl)c(N[C@@H]3[C@H](C(N)=O)[C@H]4C=C[C@@H]3C4)n1)CCN(CC(F)(F)F)CC2 (relative stereo) [Example 250, hydrochloride]	< 5.00
CN1CCN(C(=O)n2ccnc2)Cc2ccc(Nc3ncc(Cl)c(N[C@@H]4CCCC[C@H]4NS(C)(=O)=O)n3)cc21 [Example 482]	6.00 to 7.00
CNC(=O)c1cc(C)cc(C)c1Nc1nc(Nc2ccc3c(c2)CCN(CCOC)CC3)ncc1Cl [Example 317]	6.00 to 7.00
COCCN1CCc2ccc(Nc3ncc(Cl)c(Nc4ccccc4C(=O)NC4CC4)n3)cc2CC1 [Example 344]	6.00 to 7.00
CNC(=O)c1ccccc1Nc1nc(Nc2ccc3c(c2)C2CCC(C3)N2C(=O)C2CC2)ncc1Cl (centres unmarked) [Example 70]	> 7.00
CN(C)C(=O)N1CCN(C)c2cc(Nc3ncc(Cl)c(N[C@@H]4CCCC[C@H]4NS(C)(=O)=O)n3)ccc2C1 [Example 481]	5.00 to 6.00
CCN1CCc2ccc(Nc3ncc(Br)c(Nc4ccccc4C(=O)NC)n3)cc2CC1 [Example 192]	> 7.00
COCCN1CCN(C)c2cc(Nc3ncc(Cl)c(NC4C5CCC(C5)C4C(N)=O)n3)c(OC)cc2C1 (centres unmarked) [Example 491]	< 5.00
CCNC(=O)c1ccccc1Nc1nc(Nc2cc3c(cc2OC)CCN(CC(=O)N(C)C)CC3)ncc1Cl [Example 262]	5.00 to 6.00
COC(CN1CCc2ccc(Nc3ncc(Cl)c(NC4C5C=CC(C5)C4C(N)=O)n3)cc2CC1)C(F)(F)F (mixture of isomers) [Example 338]	6.00 to 7.00
COCCN1C2CCC1c1cc(Nc3ncc(Cl)c(N[C@@H]4CCCC[C@H]4NS(C)(=O)=O)n3)ccc1C2 (some centres unmarked) [Example 77]	6.00 to 7.00
CCN1CCN(CC)c2cc(Nc3ncc(Cl)c(Nc4ccccc4C(=O)NC)n3)ccc2C1 [Example 419]	> 7.00
COc1cc2c(cc1Nc1ncc(Cl)c(N[C@@H]3CCCC[C@H]3NS(C)(=O)=O)n1)CCN(CC(F)(F)F)CC2 [Example 248]	< 5.00

###

# IC50 listing for each entry below
study_system: c-Met (cytoplasmic domain) (Homo sapiens)
Construct: 10 ng/mL c-Met (cytoplasmic domain, Invitrogen Corporation #PV3143); purchased Invitrogen Corporation PV3143
assay_info: c-Met Kinase Assay (same methods as for ALK, with modifications)
Assay type: biochemical
condition_description: c-Met kinase inhibition, 1 μM ATP (Km level); read-out: cMet Activity

compound	IC50
CCN1CCc2ccc(Nc3ncc(Cl)c(Nc4ccccc4C(=O)NC)n3)c(OC)c2CC1	> 10000 nM
CC(=O)c1ccccc1Nc1nc(Nc2ccc3c(c2)CCCC(=O)N3C)ncc1Cl	< 100 nM
C#CCNc1nc(Nc2ccc3c(c2)CCN(CC)CC3)ncc1Cl	1000 to 10000 nM
CNC(=O)c1ccccc1Nc1nc(Nc2ccc3c(c2)C2CC3CN(CCOC)C2)ncc1Cl (stereo not shown)	100 to 1000 nM

###

study_system: baculovirus-expressed ALK (Homo sapiens, UniProt Q9UM73)
Construct: host or cells: baculovirus expression system
Sequence (Q9UM73 19-1620): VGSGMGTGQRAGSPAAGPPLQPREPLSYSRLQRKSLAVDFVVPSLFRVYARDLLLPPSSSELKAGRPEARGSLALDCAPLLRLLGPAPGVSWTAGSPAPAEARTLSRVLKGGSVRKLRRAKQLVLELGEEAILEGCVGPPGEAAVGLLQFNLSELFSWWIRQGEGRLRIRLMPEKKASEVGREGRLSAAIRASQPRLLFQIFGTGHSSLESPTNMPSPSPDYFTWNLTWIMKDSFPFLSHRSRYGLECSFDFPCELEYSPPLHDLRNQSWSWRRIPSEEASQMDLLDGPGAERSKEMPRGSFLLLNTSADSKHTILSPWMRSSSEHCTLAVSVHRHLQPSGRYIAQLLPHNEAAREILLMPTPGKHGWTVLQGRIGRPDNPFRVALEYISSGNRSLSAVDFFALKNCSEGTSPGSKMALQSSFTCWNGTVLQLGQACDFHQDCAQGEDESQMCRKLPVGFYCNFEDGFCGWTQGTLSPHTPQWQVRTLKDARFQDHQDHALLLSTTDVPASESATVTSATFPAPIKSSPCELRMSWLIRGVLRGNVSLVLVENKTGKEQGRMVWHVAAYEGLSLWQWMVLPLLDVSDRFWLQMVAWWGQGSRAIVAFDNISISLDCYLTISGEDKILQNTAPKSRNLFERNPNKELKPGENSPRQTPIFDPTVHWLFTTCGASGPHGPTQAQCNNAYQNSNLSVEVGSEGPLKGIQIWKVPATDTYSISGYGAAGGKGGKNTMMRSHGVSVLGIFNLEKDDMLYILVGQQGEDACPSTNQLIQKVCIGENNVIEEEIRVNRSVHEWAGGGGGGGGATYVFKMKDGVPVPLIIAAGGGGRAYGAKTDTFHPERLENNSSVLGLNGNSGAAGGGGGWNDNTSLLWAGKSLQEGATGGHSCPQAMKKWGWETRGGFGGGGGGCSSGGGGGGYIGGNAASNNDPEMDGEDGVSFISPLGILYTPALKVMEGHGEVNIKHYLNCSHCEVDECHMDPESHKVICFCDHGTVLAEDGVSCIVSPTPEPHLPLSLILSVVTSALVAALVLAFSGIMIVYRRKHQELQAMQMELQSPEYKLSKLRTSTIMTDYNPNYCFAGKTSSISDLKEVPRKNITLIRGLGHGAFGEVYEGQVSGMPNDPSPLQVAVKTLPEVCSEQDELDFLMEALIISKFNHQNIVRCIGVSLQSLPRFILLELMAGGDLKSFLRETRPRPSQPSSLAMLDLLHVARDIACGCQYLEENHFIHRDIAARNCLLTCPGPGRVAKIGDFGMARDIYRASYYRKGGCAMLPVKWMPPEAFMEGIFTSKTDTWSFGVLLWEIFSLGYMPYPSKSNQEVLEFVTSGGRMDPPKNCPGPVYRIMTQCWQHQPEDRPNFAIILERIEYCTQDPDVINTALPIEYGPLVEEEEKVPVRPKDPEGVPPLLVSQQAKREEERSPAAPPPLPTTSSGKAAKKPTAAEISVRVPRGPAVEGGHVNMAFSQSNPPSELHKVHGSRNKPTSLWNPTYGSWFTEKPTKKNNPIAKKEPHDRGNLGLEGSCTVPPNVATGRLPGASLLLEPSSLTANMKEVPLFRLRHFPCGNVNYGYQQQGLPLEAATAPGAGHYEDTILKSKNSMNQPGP
assay_info: ALK Kinase Assay (ELISA-type, time-resolved fluorescence)
Assay type: biochemical
condition_description: ALK kinase inhibition, 1 μM ATP; read-out: ALK Activity
# IC50 listing for each entry below

molecule	study_system	IC50
CNC(=O)c1cccc(F)c1Nc1nc(Nc2ccc3c(c2)N(CC(C)C)C(=O)CCC3(C)C)ncc1Cl [Example 1592]	baculovirus-expressed ALK (Homo sapiens, UniProt Q9UM73)	< 100 nM
CNC(=O)c1scc(C)c1Nc1nc(Nc2ccc3c(c2)C(C)(C)NC(=O)CC3)ncc1Cl [Example 1835]	baculovirus-expressed ALK (Homo sapiens, UniProt Q9UM73)	100 to 1000 nM
CCN1C(=O)C(NC(=O)C(F)(F)F)CC(C)(C)c2ccc(Nc3ncc(Cl)c(Nc4c(F)cccc4C(=O)NC)n3)cc21 (stereo not drawn) [Example 1642]	baculovirus-expressed ALK (Homo sapiens, UniProt Q9UM73)	100 to 1000 nM
CCN1CCNC(=O)c2ccc(Nc3ncc(Cl)c(Nc4ccccc4OCCN4CCOCC4)n3)cc21 [Example 1455]	baculovirus-expressed ALK (Homo sapiens, UniProt Q9UM73)	> 10000 nM
CCOC(=O)N1CC(=O)Nc2cc(Nc3ncc(Cl)c(Nc4c(F)cccc4C(=O)NC)n3)ccc2C1 [Example 1869]	baculovirus-expressed ALK (Homo sapiens, UniProt Q9UM73)	1000 to 10000 nM
COc1cc2c(cc1Nc1ncc(Cl)c(N[C@@H]3[C@H](C(N)=O)[C@H]4C=C[C@@H]3C4)n1)CCOC(=O)N2C [Example 1509]	baculovirus-expressed ALK (Homo sapiens, UniProt Q9UM73)	< 100 nM
CNC(=O)c1cccc(F)c1Nc1nc(Nc2ccc3c(c2)NC(=O)C(N2CCOCC2)CC3)ncc1Cl (stereo not drawn) [Example 1491]	baculovirus-expressed ALK (Homo sapiens, UniProt Q9UM73)	< 100 nM
CCN1C(=O)CCC(C)(C)c2ccc(Nc3ncc(Cl)c(Nc4ccccc4C(=O)NC)n3)cc21 [Example 1589]	baculovirus-expressed ALK (Homo sapiens, UniProt Q9UM73)	< 100 nM
CNC(=O)c1cnn(C)c1Nc1nc(Nc2ccc3c(c2)CCOC(=O)N3C)ncc1Cl [Example 1776]	baculovirus-expressed ALK (Homo sapiens, UniProt Q9UM73)	1000 to 10000 nM
COc1cc2c(cc1Nc1ncc(Cl)c(Nc3ccccc3S(=O)(=O)N(C)C)n1)N(CC(=O)N(C)C)C(=O)CN(CC(=O)N(C)C)C2 [Example 1656]	baculovirus-expressed ALK (Homo sapiens, UniProt Q9UM73)	100 to 1000 nM
COc1cc(N2CCOCC2)ccc1Nc1nc(Nc2ccc3c(c2)NCCCC3(C)C)ncc1Cl [Example 1614]	baculovirus-expressed ALK (Homo sapiens, UniProt Q9UM73)	100 to 1000 nM
CCN1CC(O)(CO)COc2ccc(Nc3ncc(Cl)c(Nc4c(F)cccc4C(=O)NC)n3)cc21 (stereo not drawn) [Example 1720]	baculovirus-expressed ALK (Homo sapiens, UniProt Q9UM73)	< 100 nM
CCN1C(=O)CN(C(C)=O)Cc2ccc(Nc3ncc(Cl)c(Nc4c(Cl)cccc4C(=O)NC)n3)cc21 [Example 1854]	baculovirus-expressed ALK (Homo sapiens, UniProt Q9UM73)	100 to 1000 nM
COc1cc2c(cc1Nc1ncc(Cl)c(Nc3ccc(N4CCOCC4)cc3OC)n1)CCOC(=O)N2C [Example 1506]	baculovirus-expressed ALK (Homo sapiens, UniProt Q9UM73)	< 100 nM
CN1Cc2cc(Nc3ncc(Cl)c(Nc4ccccc4-c4cc[nH]n4)n3)ccc2CCC1=O [Example 1804]	baculovirus-expressed ALK (Homo sapiens, UniProt Q9UM73)	< 100 nM

###

# pIC50 listing for each entry below
study_system: c-Met (cytoplasmic domain) (Homo sapiens, UniProt P08581)
Construct: 10 ng/mL c-Met (cytoplasmic domain, Invitrogen Corporation #PV3143); purchased Invitrogen Corporation PV3143
assay_info: c-Met Kinase Assay (same methods as for ALK, with modifications)
Type: biochemical
condition_description: c-Met kinase inhibition, 1 μM ATP (Km level); read-out: cMet Activity
pIC50: −log10 of the molar value.
measurement_type: pIC50

compound	result
COCCN1CCc2ccc(Nc3ncc(Cl)c(N[C@@H]4CCCC[C@H]4O)n3)cc2CC1 (relative stereo)	< 5.00
CCN1C(=O)CCC(C)(C)c2cc(Nc3ncc(Cl)c(Nc4ccccc4C(=O)NC)n3)ccc21	> 7.00
CNC(=O)c1ccccc1Nc1nc(Nc2ccc3c(c2Cl)C2CCC(C3)N2C(C)C)ncc1Cl (stereo not shown)	6.00 to 7.00
COCCN1CCN(C)c2ccc(Nc3ncc(Cl)c(N[C@@H]4CCCC[C@H]4NS(C)(=O)=O)n3)cc2C1	5.00 to 6.00

###

# IC50 listing for each entry below
study_system: baculovirus-expressed ALK (Homo sapiens)
Construct: host or cells: baculovirus expression system
assay_info: ALK Kinase Assay (ELISA-type, time-resolved fluorescence)
Format: biochemical
condition_description: ALK kinase inhibition, 1 μM ATP; read-out: ALK Activity

compound	IC50
CCN1C(=O)CN(C(C)=O)Cc2ccc(Nc3ncc(Cl)c(Nc4ccccc4C(=O)NC)n3)cc21 [Example 1855]	1000 to 10000 nM
COCCN1CCc2ccc(Nc3ncc(Cl)c(Nc4ccccc4S(=O)(=O)N4CCC(O)C4)n3)cc2CC1 (stereo not drawn) [Example 1492]	< 100 nM
CNC(=O)c1ccccc1Nc1nc(Nc2c(OC)ccc3c2CCOC(=O)N3C)ncc1Cl [Example 1517]	1000 to 10000 nM
CCN1C(=O)OCCc2cc(Nc3ncc(Cl)c(Nc4c(F)cccc4C(=O)NC)n3)ccc21 [Example 1746]	< 100 nM
C=CCOc1cc(N(C)C)cc(F)c1Nc1nc(Nc2ccc3c(c2)CCN(CCOC)CC3)ncc1Cl [Example 1710]	< 100 nM
CCN1CCNC(=O)c2ccc(Nc3ncc(Cl)c(Nc4ccccc4C(=O)NC)n3)cc21 [Example 1452]	< 100 nM
CCN1CCN(CC(=O)N(C)C)Cc2cc(OC)c(Nc3ncc(Cl)c(N[C@@H]4CCCC[C@H]4NS(C)(=O)=O)n3)cc21 [Example 1461]	< 100 nM
CNC(=O)c1cccc(Cl)c1Nc1nc(Nc2ccc3c(c2)-c2nccn2CCC3)ncc1Cl [Example 1845]	100 to 1000 nM
CNC(=O)c1cc(F)ccc1Nc1nc(Nc2ccc3c(c2)CCOC(=O)N3C)ncc1Cl [Example 1752]	< 100 nM
COc1cc2c(cc1Nc1ncc(Cl)c(N[C@H]3[C@@H](C(N)=O)[C@@H]4C=C[C@H]3C4)n1)CCN(C[C@H](C)O)CC2 [Example 1558]	< 100 nM
CNC(=O)c1cccc(F)c1Nc1nc(Nc2ccc3c(c2)N(C(=O)CN2C(=O)c4ccccc4C2=O)CCCC3(C)C)ncc1Cl [Example 1616]	100 to 1000 nM
COCCN1CCCC(C)(C)c2ccc(Nc3ncc(Cl)c(N[C@H]4[C@@H](C(N)=O)[C@@H]5C=C[C@H]4C5)n3)cc21 [Example 1600]	< 100 nM
CNC(=O)c1ccccc1Nc1nc(Nc2ccc3c(c2)CC(=O)N(C)CC3)ncc1Cl [Example 1815]	1000 to 10000 nM
COc1cc2c(cc1Nc1ncc(Cl)c(N[C@@H]3CCCC[C@H]3NS(C)(=O)=O)n1)CCN(CCO)CC2 [Example 1531]	< 100 nM
CNC(=O)c1cccc(F)c1Nc1nc(Nc2ccc3c(c2)NC(=O)CCC3(C)C)ncc1Cl [Example 1574]	100 to 1000 nM
C#CCNC(=O)c1cccc(F)c1Nc1nc(Nc2ccc3c(c2)N(C(C)C)CCCO3)ncc1Cl [Example 1733]	< 100 nM
COc1cc2c(cc1Nc1ncc(Cl)c(N[C@@H]3CCCC[C@H]3NS(C)(=O)=O)n1)CCN(CC(=O)N1CCOCC1)CC2 [Example 1528]	< 100 nM
CNC(=O)c1cc(-c2cnn(C)c2)cc(F)c1Nc1nc(Nc2ccc3c(c2)NC(=O)CCC3(C)C)ncc1Cl [Example 1624]	< 100 nM
CNC(=O)c1sccc1Nc1nc(Nc2ccc3c(c2)N(CCOC)C(=O)CCC3)ncc1Cl [Example 1478]	100 to 1000 nM
COc1cc2c(cc1Nc1ncc(Cl)c(Nc3ccccc3S(=O)(=O)N3CCCC3)n1)CCN(CCO)CC2 [Example 1543]	< 100 nM
CC(=O)NC1CC(C)(C)c2ccc(Nc3ncc(Cl)c(Nc4c(F)cccc4C(=O)NCC#N)n3)cc2NC1=O (stereo not drawn) [Example 1636]	< 100 nM
CCN1CC(=O)Nc2cc(Nc3ncc(Cl)c(Nc4ccccc4S(=O)(=O)C(C)C)n3)c(OC)cc2C1 [Example 1660]	< 100 nM
CCN1CCc2ccc(Nc3ncc(Cl)c(N[C@H]4CCCC[C@@H]4C(N)=O)n3)cc2CC1 [Example 1502]	100 to 1000 nM
Cc1n[nH]c(-c2ccccc2Nc2nc(Nc3ccc4c(c3)CCOC(=O)N4C)ncc2Cl)n1 [Example 1788]	< 100 nM
CCN1CCCOc2ccc(Nc3ncc(Cl)c(Nc4ccsc4C(=O)NC)n3)cc21 [Example 1698]	100 to 1000 nM
CCN1CCCC(C)(C)c2ccc(Nc3ncc(Cl)c(Nc4c(F)cccc4C(=O)NC)n3)cc21 [Example 1632]	100 to 1000 nM
CNC(=O)c1cccc(F)c1Nc1nc(Nc2ccc3c(c2)NC(=O)C(NCCOC)CC3)ncc1Cl (stereo not drawn) [Example 1495]	1000 to 10000 nM
CNC(=O)c1cccc(F)c1Nc1nc(Nc2ccc3c(c2)N(C(C)=O)CCCC3(C)C)ncc1Cl [Example 1596]	100 to 1000 nM
COCCN1CCc2ccc(Nc3ncc(Cl)c(N[C@H]4CCC[C@H]4NS(C)(=O)=O)n3)cc2CC1 [Example 1501]	100 to 1000 nM
CNC(=O)c1ccc2c(c1Nc1nc(Nc3ccc4c(c3)CCCC(=O)N4C)ncc1Cl)OCO2 [Example 1479]	100 to 1000 nM
